Kindly supply the reported pEC50 values for the records listed here.
target: 5-HT2A receptors (Homo sapiens, UniProt P28223); assay: Functional activity, FLIPR calcium assay, CHO cells expressing human 5-HT2A; conditions: FLIPR, CHO cells, Fluo-3-AM; read-out: h5-HT2A EC50
Sequence (P28223 whole entry): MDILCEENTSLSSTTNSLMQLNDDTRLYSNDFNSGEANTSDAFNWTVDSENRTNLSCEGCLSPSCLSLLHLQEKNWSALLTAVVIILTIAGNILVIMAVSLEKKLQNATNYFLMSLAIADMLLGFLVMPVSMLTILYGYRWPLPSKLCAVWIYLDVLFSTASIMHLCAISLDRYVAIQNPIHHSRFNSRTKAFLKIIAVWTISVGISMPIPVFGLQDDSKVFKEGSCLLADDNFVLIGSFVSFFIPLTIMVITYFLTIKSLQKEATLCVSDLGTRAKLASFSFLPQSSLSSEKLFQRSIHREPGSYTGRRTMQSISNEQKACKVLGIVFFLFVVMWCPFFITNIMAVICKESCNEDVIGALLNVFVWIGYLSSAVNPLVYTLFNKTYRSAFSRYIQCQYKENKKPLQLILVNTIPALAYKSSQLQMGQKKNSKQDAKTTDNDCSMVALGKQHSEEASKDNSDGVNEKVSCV
Counter-ions that a name gives are not always drawn.
Numbers only, as −log10 of the molar value.

Need pEC50 for each of these compounds.
1. C[C@H](N)Cn1ccc2cc(Cl)c3ncccc3c21 [Example 5, fumarate]
2. C[C@H](N)Cn1ccc2ccc3ccncc3c21 [Example 7, fumarate]
3. C[C@H](N)Cn1ccc2ccc3cnccc3c21 [Example 4, fumarate]
4. C[C@H](N)Cn1ccc2ccc3ncccc3c21
5. C[C@@H](Cn1ccc2ccc3ncccc3c21)NCc1ccc2c(c1)OCO2 [Example 9, bis-fumarate]
6. C[C@@H](N)Cn1ccc2ccc3ncccc3c21
7. C[C@H](N)Cn1ccc2ccc3cccnc3c21

1: 7.28; 2: 6.20; 3: 6.06; 4: 6.44; 5: 5.89; 6: 7.06; 7: 5.97

This collection of values is drawn from patent US6365598B1.
